Just for reference, the supplement of paper PMC10307832 is where these values come from.

relative viability: recorded values
- Tested on: A-427
- experiment summary: relative viability (nuclei count vs DMSO), 5 days (fraction); higher = more cells survive
- condition context: first compound 0.1265 µM
measured property: relative viability

C[C@@H]1CN(CC(=O)Nc2ccc3c(c2)Cc2cccc(-c4cc(=O)cc(N5CCOCC5)o4)c2S3)C[C@H](C)O1 + CCNC(=O)c1noc(-c2cc(C(C)C)c(O)cc2O)c1-c1ccc(CN2CCOCC2)cc1 [Luminespib] (partner 0.01 µM)	0.884
C[C@@H]1CN(CC(=O)Nc2ccc3c(c2)Cc2cccc(-c4cc(=O)cc(N5CCOCC5)o4)c2S3)C[C@H](C)O1 + Cc1nc(NC(=O)N2CCC[C@H]2C(N)=O)sc1-c1ccnc(C(C)(C)C(F)(F)F)c1 [Alpelisib] (partner 2 µM)	1.08
Clc1ccc(Nc2nnc(Cc3ccncc3)c3ccccc23)cc1 [Vatalanib] + CC(=O)c1c(C)c2cnc(Nc3ccc(N4CCNCC4)cn3)nc2n(C2CCCC2)c1=O [Palbociclib] (partner 0.5 µM)	0.482
COc1cc(N2CCC(C(N)=O)CC2)ccc1Nc1nc(N)c(Cl)c(Nc2ccccc2S(=O)(=O)C(C)C)n1 [HG-5-88-01] + NC(=O)Nc1cc(-c2cccc(F)c2)sc1C(=O)N[C@H]1CCCNC1 [AZD7762] (partner 0.2 µM)	0.776
C[C@@H]1CN(CC(=O)Nc2ccc3c(c2)Cc2cccc(-c4cc(=O)cc(N5CCOCC5)o4)c2S3)C[C@H](C)O1 + O=C(CCCCCCC(=O)Nc1ccccc1)NO [Vorinostat] (partner 1 µM)	0.92
Clc1ccc(Nc2nnc(Cc3ccncc3)c3ccccc23)cc1 [Vatalanib] + N=C(N)NC(=N)NCCc1ccccc1 [Phenformin] (partner 250 µM)	0.295
COc1cc(N2CCC(C(N)=O)CC2)ccc1Nc1nc(N)c(Cl)c(Nc2ccccc2S(=O)(=O)C(C)C)n1 [HG-5-88-01] + Nc1ncn([C@H]2C[C@H](O)[C@@H](CO)O2)c(=O)n1 [Decitabine] (partner 2 µM)	0.598
Clc1ccc(Nc2nnc(Cc3ccncc3)c3ccccc23)cc1 [Vatalanib] + CC(C)C[C@H](NC(=O)[C@H](Cc1ccccc1)NC(=O)c1cnccn1)B(O)O [Bortezomib] (partner 0.002 µM)	0.926
COc1cc(N2CCC(C(N)=O)CC2)ccc1Nc1nc(N)c(Cl)c(Nc2ccccc2S(=O)(=O)C(C)C)n1 [HG-5-88-01] + Cc1nc(NC(=O)N2CCC[C@H]2C(N)=O)sc1-c1ccnc(C(C)(C)C(F)(F)F)c1 [Alpelisib] (partner 2 µM)	1.12
C[C@@H]1CN(CC(=O)Nc2ccc3c(c2)Cc2cccc(-c4cc(=O)cc(N5CCOCC5)o4)c2S3)C[C@H](C)O1 + CC1(C)CCC(c2ccc(Cl)cc2)=C(CN2CCN(c3ccc(C(=O)NS(=O)(=O)c4ccc(N[C@H](CCN5CCOCC5)CSc5ccccc5)c(S(=O)(=O)C(F)(F)F)c4)cc3)CC2)C1 [Navitoclax] (partner 0.5 µM)	0.982
